System: Dd2
Experiment: qHTS profiling for inhibitors of Plasmodium falciparum proliferation (AID 504749); note: nearly all actives have a fitted effect of over 60% in size
Conditions: P. falciparum in erythrocytes, SYBR Green DNA, 72 h; series mostly up to 12.8 µM
Protocol: NIH National Institute of Allergy and Infectious Diseases [NIAID] NIH Chemical Genomics Center [NCGC] […] Because mature erythrocytes lack DNA, only Plasmodium-derived DNA is detected. NCGC Assay Protocol Summary: The SYBR Green viability assay was adapted from a method described previously (Plouffe et al., 2008). […] The following morning, fluorescence intensity at 485(14) nm excitation and 535(25) nm emission wavelengths was measured on an EnVision (Perkin Elmer) plate reader. […]
Results filed as inconclusive are left out. Calls of active or inactive are those of the source. Calls come from the whole dose curve; as a rule, active = well fitted inhibition curve with a large enough effect; inconclusive = small, poorly fitted or top-dose-only effect; inactive = flat fitted curve, though single readings scatter.
Labels: active, inactive

| Molecule | Cat |
| --- | --- |
| CCOC(=O)O[C@]1(C(=O)COC(=O)CC)CC[C@@H]2[C@@H]3CCC4=CC(=O)C=C[C@@]4(C)[C@H]3[C@H](O)C[C@]21C | inactive |
| CCC(=O)[C@@]1(C)[C@H](C)C[C@@H]2[C@@H]3CCC4=CC(=O)C=C[C@@]4(C)[C@H]3[C@H](O)C[C@]21C | inactive |
| C[C@]1(c2ccccc2)OC(C(=O)O)=CC1=O | inactive |
| COc1ccc2c(c1)N(C[C@@H](C)CN(C)C)c1ccccc1S2 | inactive |
| CC1(C)O[C@@H]2C[C@H]3[C@H]4C[C@H](F)C5=CC(=O)CC[C@]5(C)[C@@H]4[C@H](O)C[C@]3(C)[C@]2(C(=O)CO)O1 | inactive |
| C[C@@H](CNC1CCCCC1)OC(=O)c1ccccc1 | active |
| CC1(C)S[C@H]2C(NC(=O)[C@@H](N)c3ccc(O)cc3)C(=O)N2[C@@H]1C(=O)O (stereo partly drawn) | inactive |
| NCC1CCC(N)C(O[C@@H]2C(O)[C@H](O[C@H]3OC(CO)C(O)C(N)C3O)[C@@H](N)C[C@H]2N)O1 (stereo partly drawn) | inactive |
| CCCC[C@H](CC)CN1CN(C[C@@H](CC)CCCC)CC(C)(N)C1 | inactive |
| CC(=O)C[C@H](c1ccc([N+](=O)[O-])cc1)c1c(O)c2ccccc2oc1=O | inactive |
| CC(=O)O[C@H]1C[C@@]2(C)[C@H](C[C@@H](O)[C@H]3[C@@]4(C)CC[C@@H](O)[C@@H](C)[C@H]4CC[C@@]32C)C1=C(CCC=C(C)C)C(=O)O | inactive |
| Cc1ccc(S(=O)(=O)NC(=O)NN2C[C@H]3CCC[C@@H]3C2)cc1 | inactive |
| CC1=C(C(=O)O)N2C(=O)[C@@H](NC(=O)[C@@H](N)c3ccc(O)cc3)[C@@H]2SC1 | inactive |
| OCCN1CCN(CCC=C2c3ccccc3Sc3ccc(Cl)cc32)CC1 | active |
| Nc1nc(NC2CC2)c2ncn([C@H]3C=C[C@@H](CO)C3)c2n1 | inactive |
| CC[C@](C)(CN(C)C)OC(=O)c1ccccc1 | active |
| O=C(O)COCCN1CCN([C@@H](c2ccccc2)c2ccc(Cl)cc2)CC1 | inactive |
| N[C@@H]1C(O)OC(CO)C(O)C1O (stereo partly drawn) | inactive |
| C[C@H](O)Cn1cnc2c1c(=O)n(C)c(=O)n2C | inactive |
| COC1C=CO[C@@]2(C)Oc3c(C)c(O)c4c(O)c(c5c(nc6cc(C)ccn65)c4c3C2=O)NC(=O)/C(C)=C\C=CC(C)C(O)[C@@H](C)C(O)C(C)[C@@H](OC(C)=O)C1C (stereo partly drawn) | active |
| COC(=O)N/N=C/C1=C[N+](=O)c2ccccc2[N+]1=O | inactive |
| Cc1ncc([N+](=O)[O-])n1C[C@H](O)CCl | inactive |
| O=C(NC[C@@H](O)CO)c1c(I)c(C(=O)NC[C@@H](O)CO)c(I)c(N(CCO)C(=O)CO)c1I | inactive |
| O=C(O)[C@@H]1CCCN1 | inactive |
| C[C@H](CCC(=O)O)[C@H]1CC[C@@H]2[C@@H]3[C@@H](O)C[C@H]4C[C@@H](O)CC[C@@]4(C)[C@H]3CC[C@@]21C | inactive |
| CCO[C@H]1O[C@@H]([C@H](COCc2ccccc2)OCc2ccccc2)[C@@H](OCc2ccccc2)[C@H]1O | inactive |
| CCC[C@@H]1O[C@@H]2C[C@@H]3[C@H]4CCC5=CC(=O)C=C[C@@]5(C)[C@H]4[C@H](O)C[C@@]3(C)[C@@]2(C(=O)CO)O1 | active |
| COc1cc(N[C@@H](C)CCCN)c2ncccc2c1 | active |
| O=C(Nc1ccccc1)OC[C@H](CN1CCCCC1)OC(=O)Nc1ccccc1 | inactive |
| NS(=O)(=O)c1cc2c(cc1Cl)N[C@@H](CC1CCCC1)NS2(=O)=O | inactive |
| CC(C)C1CCC(C(=O)NC(Cc2ccccc2)C(=O)O)CC1 (stereo not drawn) | inactive |
| CCC1OC(=O)CC(O)C(C)[C@@H](O[C@@H]2OC(C)[C@H](O[C@@H]3C[C@@](C)(O)C(O)C(C)O3)C(N(C)C)C2O)[C@H](CC=O)CC(C)C(=O)/C=C/C(C)=C/[C@@H]1COC1OC(C)C(O)C(OC)[C@@H]1OC (stereo partly drawn) | active |
| O=C1O[C@@H]([C@@H](O)CO)[C@@H](O)[C@H]1O | inactive |
| CC(C)(C)NC[C@@H](O)COc1ccccc1C1CCCC1 | active |
| NS(=O)(=O)c1cc2c(cc1C(F)(F)F)N[C@H](Cc1ccccc1)NS2(=O)=O | inactive |
| CCOC(=O)[C@H](CCc1ccccc1)N[C@@H](C)C(=O)N1[C@H](C(=O)O)C[C@H]2CCC[C@@H]21 | inactive |
| CC(=C(CCOP(=O)(O)O)SC(=O)c1ccccc1)N(C=O)Cc1cnc(C)nc1N | inactive |
| CCc1c(C)[nH]c2c1C(=O)[C@H](CN1CCOCC1)CC2 | inactive |
